Tested on: Plasmodium falciparum
Test: microbe, parasite or virus in culture
Conditions: NF54, Erythrocyte
Description: Antiplasmodial activity against multidrug-sensitive Plasmodium falciparum NF54 infected in human erythrocytes assessed as reduction in [3H]hypoxanthine incorporation preincubated for 48 hrs followed by [3H]hypoxanthine addition and measured after 24 hrs by liquid scintillation counting method
We label by threshold. Values of IC50 strictly beneath 0.03 µM are Fulfilled. Values of 0.03 µM and up are Not fulfilled.

Worked examples, 4 compounds total:
Nc1ncc(-c2ccc(C(=O)N3CCC(O)C3)cc2)nc1-c1ccc(C(F)(F)F)cc1 (stereo not given)	Fulfilled
NC(=O)c1ccc(-c2cnc(N)c(-c3ccc(C(F)(F)F)nc3)n2)cn1	Fulfilled
Nc1ccc(-c2cnc(N)c(-c3ccc(N)nc3)n2)cn1	Not fulfilled
N#Cc1ccc(-c2cnc(N)c(-c3ccc(C(F)(F)F)nc3)n2)nc1	Not fulfilled

# next compound below
Task item: IC50 under 0.03 µM? Item: `NC(=O)c1ccc(-c2cnc(N)c(-c3ccc(C(N)=O)cc3)n2)cc1`
Reply: Fulfilled

* * *

System: Plasmodium falciparum
Test: microbe, parasite or virus in culture
Details: NF54, Erythrocyte
observationType: pIC50
Here pIC50 is given on a logarithmic scale as minus log10 of the concentration in mol/L.

CN1CCN(C(=O)c2ccc(-c3cnc(N)c(-c4ccc(C(F)(F)F)cc4)n3)cc2)CC1	8.10

Task item: # get_value(readout='pIC50', item= `Nc1ccc(-c2nc(-c3ccc(C(=O)N4CCNCC4)cc3)cnc2N)cn1` )
Reply: 7.29

Task item: # get_value(readout='pIC50', item= Nc1ncc(-c2ccc(C(=O)N3CCC(O)C3)cc2)nc1-c1ccc(C(F)(F)F)nc1 (stereo not given) )
Reply: 7.74

Task item: # get_value(readout='pIC50', item= `Nc1ncc(-c2ccc(C(=O)N3CCCNCC3)cc2)nc1-c1ccc(C(F)(F)F)nc1` )
Reply: 7.90

Task item: # get_value(readout='pIC50', item= `Nc1ncc(-c2ccc(C(=O)N3CCCNCC3)cc2)nc1-c1ccc(C(F)(F)F)cc1` )
Reply: 8.11

Task item: # get_value(readout='pIC50', item= `CNC(=O)c1ccc(-c2nc(-c3ccc(C(N)=O)cc3)cnc2N)cc1` )
Reply: 7.28

* * *

Experiment: Half-life in Sprague-dawley rat at 5 mg/kg, iv by LC-MS/MS analysis
Assay type: ADME, organism-based
Details: in vivo
Below, each entry is listed with its recorded half-life.
Write the value in h as a bare number.

Nc1ncc(-c2ccc(C(=O)N3CC[C@@H](O)C3)cc2)nc1-c1ccc(C(F)(F)F)cc1	5.3
Nc1ncc(-c2ccc(C(=O)N3CCNCC3)cc2)nc1-c1ccc(C(F)(F)F)cc1	7.8

Read the next record carefully.
Task item: # get_value(readout='half-life', item= `Nc1ncc(-c2ccc(C(=O)N3CC(O)C3)cc2)nc1-c1ccc(C(F)(F)F)cc1` )
Reply: 3

* * *

Assay: Aqueous solubility of compound in pH 2 0.01M HCl incubated for 2 hrs under shaking condition by shake-flask method based HPLC-DAD analysis
Assay type: physicochemical
observationType: solubility thermodynamic at 2 h (µM)
Write the value in µM as a bare number.

NC(=O)c1ccc(-c2cnc(N)c(-c3ccc(C(F)(F)F)nc3)n2)cn1	7

Task item: # get_value(readout='solubility thermodynamic at 2 h', item= `Nc1ccc(-c2nc(-c3ccc(S(=O)(=O)C4CC4)cc3)cnc2N)cn1` )
Reply: 212

Task item: # get_value(readout='solubility thermodynamic at 2 h', item= `CN1CCN(C(=O)c2ccc(-c3cnc(N)c(-c4ccc(C(F)(F)F)nc4)n3)cc2)CC1` )
Reply: 200

Task item: # get_value(readout='solubility thermodynamic at 2 h', item= `Nc1ncc(-c2ccc(C(=O)N3CC[C@@H](O)C3)cc2)nc1-c1ccc(C(F)(F)F)cc1` )
Reply: 103

Task item: # get_value(readout='solubility thermodynamic at 2 h', item= `Nc1ncc(-c2ccc(C(=O)N3CCCNCC3)cc2)nc1-c1ccc(C(F)(F)F)cc1` )
Reply: 190

Task item: # get_value(readout='solubility thermodynamic at 2 h', item= `Nc1ncc(-c2ccc(C(=O)N3CCNCC3)cc2)nc1-c1ccc(C(F)(F)F)cc1` )
Reply: 192

* * *

Assay: Half-life in Sprague-dawley rat at 10 mg/kg, po by LC-MS/MS analysis
Assay type: ADME, organism-based
Conditions: in vivo
observationType: half-life (h)
Write the value in h as a bare number.

Task item: # get_value(readout='half-life', item= `Nc1ncc(-c2ccc(C(=O)N3CCC(O)CC3)cc2)nc1-c1ccc(C(F)(F)F)cc1` )
Reply: 5.4

* * *

Below, each entry is listed with its recorded solubility thermodynamic at 2 h.
Experiment: Aqueous solubility of compound in pH 6.5 PBS incubated for 2 hrs under shaking condition by shake-flask method based HPLC-DAD analysis
Type: physicochemical
Write the value in µM as a bare number.

Nc1ncc(-c2ccc(C(=O)N3CCC(O)CC3)cc2)nc1-c1ccc(C(F)(F)F)nc1	184
Nc1ncc(-c2ccc(C(=O)N3CC(O)C3)cc2)nc1-c1ccc(C(F)(F)F)cc1	55
Nc1ncc(-c2ccc(C(=O)N3CCC(N)C3)cc2)nc1-c1ccc(C(F)(F)F)cc1 (stereo not given)	102
Nc1ncc(-c2ccc(C(=O)N3CC[C@H](O)C3)cc2)nc1-c1ccc(C(F)(F)F)cc1	68
Nc1ncc(-c2ccc(C(=O)O)cc2)nc1-c1ccc(C(F)(F)F)cc1	95
CS(=O)(=O)c1ccc(-c2cnc(N)c(-c3ccc(N)nc3)n2)cc1	149

Read the next record carefully.
Task item: # get_value(readout='solubility thermodynamic at 2 h', item= `Nc1ncc(-c2ccc(C(=O)N3CCNCC3)cc2)nc1-c1ccc(C(F)(F)F)cc1` )
Reply: 158

* * *

Below, each entry is listed with its recorded IC50.
Molecular target: Voltage-gated inwardly rectifying potassium channel KCNH2 (Homo sapiens, UniProt Q12809)
Sequence (Q12809 whole entry): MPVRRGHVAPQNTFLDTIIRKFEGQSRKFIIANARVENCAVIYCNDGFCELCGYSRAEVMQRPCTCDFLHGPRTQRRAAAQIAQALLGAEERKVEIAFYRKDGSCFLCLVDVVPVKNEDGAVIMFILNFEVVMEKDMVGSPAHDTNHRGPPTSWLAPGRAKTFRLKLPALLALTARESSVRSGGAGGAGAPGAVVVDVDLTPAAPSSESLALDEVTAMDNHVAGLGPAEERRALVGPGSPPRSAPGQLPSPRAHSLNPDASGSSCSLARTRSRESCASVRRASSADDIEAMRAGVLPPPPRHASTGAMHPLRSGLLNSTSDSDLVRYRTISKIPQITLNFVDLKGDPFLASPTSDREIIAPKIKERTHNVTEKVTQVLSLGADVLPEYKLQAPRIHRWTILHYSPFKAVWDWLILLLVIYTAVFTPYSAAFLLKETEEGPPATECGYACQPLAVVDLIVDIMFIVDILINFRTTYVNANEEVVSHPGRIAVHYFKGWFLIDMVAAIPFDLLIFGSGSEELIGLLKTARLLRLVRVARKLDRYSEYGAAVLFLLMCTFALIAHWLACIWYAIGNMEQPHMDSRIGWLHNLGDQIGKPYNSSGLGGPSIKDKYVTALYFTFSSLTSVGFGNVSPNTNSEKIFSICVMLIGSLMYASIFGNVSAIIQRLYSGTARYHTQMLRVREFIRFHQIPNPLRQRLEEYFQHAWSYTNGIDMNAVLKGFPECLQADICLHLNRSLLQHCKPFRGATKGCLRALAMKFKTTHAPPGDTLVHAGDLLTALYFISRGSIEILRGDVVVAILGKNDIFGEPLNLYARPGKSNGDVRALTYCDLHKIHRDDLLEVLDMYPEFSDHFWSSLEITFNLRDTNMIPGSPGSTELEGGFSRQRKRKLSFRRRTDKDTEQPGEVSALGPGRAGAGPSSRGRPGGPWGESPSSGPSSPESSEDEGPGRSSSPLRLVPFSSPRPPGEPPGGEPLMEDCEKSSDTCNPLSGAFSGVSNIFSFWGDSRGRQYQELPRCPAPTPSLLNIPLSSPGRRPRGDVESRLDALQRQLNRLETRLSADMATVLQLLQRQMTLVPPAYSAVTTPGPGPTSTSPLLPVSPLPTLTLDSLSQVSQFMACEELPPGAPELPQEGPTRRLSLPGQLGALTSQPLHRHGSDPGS
Assay: Inhibition of human ERG by IonWorks patch clamp electrophysiology method
Write the value in µM as a bare number.

Study these solved cases before continuing.
CN1CCCN(C(=O)c2ccc(-c3cnc(N)c(-c4ccc(C(F)(F)F)cc4)n3)cc2)CC1	5
CC(C)(C)N1CCN(C(=O)c2ccc(-c3cnc(N)c(-c4ccc(C(F)(F)F)cc4)n3)cc2)CC1	2
Nc1ncc(-c2ccc(C(=O)N3CCNCC3)cc2)nc1-c1ccc(C(F)(F)F)cc1	10

Task item: # get_value(readout='IC50', item= Nc1ncc(-c2ccc(C(=O)N3CCC(N)C3)cc2)nc1-c1ccc(C(F)(F)F)cc1 (stereo not drawn) )
Reply: 10

* * *

Below, each entry is listed with its recorded clearance.
Assay: Clearance in Sprague-dawley rat at 5 mg/kg, iv by LC-MS/MS analysis
Assay type: ADME, organism-based
Details: in vivo
Write the value in mL/min/kg as a bare number.

Study these solved cases before continuing.
Nc1ncc(-c2ccc(C(=O)N3CCNCC3)cc2)nc1-c1ccc(C(F)(F)F)cc1	10.3
Nc1ncc(-c2ccc(C(=O)N3CC[C@@H](O)C3)cc2)nc1-c1ccc(C(F)(F)F)cc1	13.5

Read the next record carefully.
Task item: # get_value(readout='clearance', item= `Nc1ncc(-c2ccc(C(=O)N3CC(O)C3)cc2)nc1-c1ccc(C(F)(F)F)cc1` )
Reply: 22

* * *

Assay: Half-life in Sprague-dawley rat at 20 mg/kg, po by LC-MS/MS analysis
Format: ADME, organism-based
Details: in vivo
Label n if half-life falls below 5 h; label y in every other case.

Worked examples, 4 compounds total:
NC(=O)c1ccc(-c2cnc(N)c(-c3ccc(C(F)(F)F)cc3)n2)cc1	y
Nc1ncc(-c2ccc(C(=O)N3CC(O)C3)cc2)nc1-c1ccc(C(F)(F)F)cc1	y
Nc1ncc(-c2ccc(C(=O)O)cc2)nc1-c1ccc(C(F)(F)F)nc1	n
Nc1ncc(-c2ccc(C(=O)N3CCNCC3)cc2)nc1-c1ccc(C(F)(F)F)cc1	y

Task item: Hi, just wondering whether `Nc1ncc(-c2ccc(C(=O)N3CC[C@@H](O)C3)cc2)nc1-c1ccc(C(F)(F)F)cc1` shows half-life of 5 h or higher.
Reply: y

* * *

Below, each entry is listed with its recorded log10 of AUC at 96 h.
Assay: AUC(app) in NMRI mouse plasma infected with Plasmodium berghei ANKA at 3 mg/kg, po qd for 4 consecutive days and measured post last dose
Format: ADME, organism-based
Conditions: time 4 day
Please be aware that the numbers have been log10-transformed from AUC at 96 h in µM·h.

Study these solved cases before continuing.
Nc1ncc(-c2ccc(C(=O)N3CCNCC3)cc2)nc1-c1ccc(C(F)(F)F)cc1	0.73
Nc1ncc(-c2ccc(C(=O)O)cc2)nc1-c1ccc(C(F)(F)F)cc1	1.90

Task item: # get_value(readout='log10 of AUC at 96 h', item= `NC(=O)c1ccc(-c2cnc(N)c(-c3ccc(C(F)(F)F)nc3)n2)cc1` )
Reply: 1.84

Task item: # get_value(readout='log10 of AUC at 96 h', item= `CC(C)(C)N1CCN(C(=O)c2ccc(-c3cnc(N)c(-c4ccc(C(F)(F)F)nc4)n3)cc2)CC1` )
Reply: 0.64

Task item: # get_value(readout='log10 of AUC at 96 h', item= `Nc1ncc(-c2ccc(C(=O)N3CC[C@@H](O)C3)cc2)nc1-c1ccc(C(F)(F)F)cc1` )
Reply: 1.52

Task item: # get_value(readout='log10 of AUC at 96 h', item= `Nc1ncc(-c2ccc(C(=O)O)cc2)nc1-c1ccc(C(F)(F)F)nc1` )
Reply: 1.49

Task item: # get_value(readout='log10 of AUC at 96 h', item= `NC(=O)c1ccc(-c2cnc(N)c(-c3ccc(C(F)(F)F)cc3)n2)cc1` )
Reply: 1.63

Task item: # get_value(readout='log10 of AUC at 96 h', item= Nc1ncc(-c2ccc(C(=O)N3CCC(O)C3)cc2)nc1-c1ccc(C(F)(F)F)cc1 (stereo not drawn) )
Reply: 1.54
